System: HL-60(TB) leukemia
Assay: NCI tumour cell line growth inhibition, 48 h; in the data active = GI50 below about 0.43 µM; inactive = the rest
*1 amine or outer side, *2 acyl side, *3 side chain or, on linkers, in order; H or OH if unused. Where a SMILES comes first, the peptide text is derived from it. Bridges are numbered along the chain shown (N, C = ends). [ ]: non-standard residue; d: D form. The star is where a group is joined. Phe(3-Me) = Cc1cccc(C[C@H](N)C(=O)O)c1; NH(4-Cl-2-F-phenyl) = Fc1cc(Cl)ccc1N*; Pro(4R-Me) = C[C@H]1CN[C@H](C(=O)O)C1; Hyp = O=C(O)[C@@H]1C[C@@H](O)CN1; aThr = C[C@H](O)[C@H](N)C(=O)O; Pip = O=C(O)[C@@H]1CCCCN1; CO = O=C([*:1])[*:2]
Outcome codes: 1.0 = active, 0.0 = inactive

compound: CO/N=C1/NC(=O)/C(=C/c2ccc3ncccc3c2)S1
group: 0.0

compound: COc1cc(-c2cc(-c3nc4ccccc4[nH]3)[nH]n2)cc(OC)c1OC
group: 0.0

compound: CC1(C)N=C(N)N=C(N)N1c1cccc(CCCCc2ccc(S(=O)(=O)F)cc2Cl)c1
group: 0.0

compound: Cc1cccc(C[C@H](NC(=O)Nc2ccc(Cl)cc2F)C(=O)N[C@@H]2C(=O)N3C[C@H](O)C[C@H]3C(=O)N3CCCC[C@H]3C(=O)N[C@@H](C)C(=O)N3C[C@H](C)C[C@H]3C(=O)O[C@H]2C)c1 ({NH(4-Cl-2-F-phenyl)-CO}-[Phe(3-Me)][aThr][Hyp][Pip]A[Pro(4R-Me)]; ester 2-C)
group: 1.0

compound: CN(/N=N/c1nc(OCc2ccccc2)c2[nH]cnc2n1)C(=O)N(C)/N=N/c1nc(OCc2ccccc2)c2[nH]cnc2n1
group: 0.0

compound: Cc1nc(NC(=S)Nc2ccc(F)cc2)sc1C(=O)NNC(=S)Nc1ccc(F)cc1
group: 0.0

compound: CCS(=O)(=O)c1ccc(OC)c(Nc2nccc(N(C)c3ccc4c(C)[nH]nc4c3)n2)c1
group: 0.0
